experiment: Antioxidant activity assessed as DPPH radical scavenging activity at 100 uM after 20 mins by spectrophotometry; assay type: physicochemical

{"compound structure string": "CC(C)=CCOc1ccc(-c2cc3cc(Br)ccc3oc2=O)cc1OCC=C(C)C", "inhibition (INH)": "Not Active"}
{"compound structure string": "CC(C)=CCOc1ccc(-c2c(C)c3cc(Br)cc(Br)c3oc2=O)cc1OCC=C(C)C", "inhibition (INH)": "Not Active"}
{"compound structure string": "COc1ccc(-c2c(C)c3cc(Cl)ccc3oc2=S)cc1OC", "inhibition (INH)": "Not Active"}
